Measured Ki, listed per entry for reference.
# Target System: Sushi domains (SD1/2) protein
# Experiment: Fluorescence polarization (FP) competition assay with AJAP-1probe, calculated Ki
# Format: binding
# Condition Set: Table 6, elongation and truncation scan of PIANP binding epitope; read-out: Ki (nM) mean ± SEM
Residues, ends and D or L forms follow the SMILES beside them.
Field format: number, assumed nM, no unit text.

Past entries and their recorded results:
Compound	Target System	Unit Abbreviation	Ki
CC[C@H](C)[C@H](NC(=O)[C@H](C)NC(=O)[C@H](Cc1c[nH]c2ccccc12)NC(=O)[C@@H]1CCCN1C(=O)[C@H](Cc1ccc(O)cc1)NC(=O)[C@H](CCC(N)=O)NC(=O)[C@H](CO)NC(=O)[C@H](CO)NC(C)=O)C(=O)N[C@H](C(=O)N[C@@H](Cc1c[nH]c2ccccc12)C(=O)NCC(=O)N1CCC[C@H]1C(=O)N[C@H](C(=O)N[C@H](C(=O)N[C@@H](CO)C(=O)N[C@@H](CCCNC(=N)N)C(=O)N[C@@H](CCC(=O)O)C(=O)N[C@@H](CC(=O)O)C(=O)NCC(N)=O)C(C)C)[C@@H](C)O)C(C)C (Ac-SSQYPWAIVWGPTVSREDG-NH2)	Sushi domains (SD1/2) protein	nM	29900
CC[C@H](C)[C@H](NC(=O)[C@H](C)NC(=O)[C@H](Cc1c[nH]c2ccccc12)NC(=O)[C@@H]1CCCN1C(C)=O)C(=O)N[C@H](C(=O)N[C@@H](Cc1c[nH]c2ccccc12)C(=O)NCC(=O)N1CCC[C@H]1C(=O)N[C@H](C(=O)N[C@H](C(=O)N[C@@H](CO)C(N)=O)C(C)C)[C@@H](C)O)C(C)C (Ac-PWAIVWGPTVS-NH2)	Sushi domains (SD1/2) protein	nM	463

Here's the next entry for you.
Problem: Find Ki (Sushi domains (SD1/2) protein) for the entry CC[C@H](C)[C@H](NC(=O)[C@H](C)NC(=O)[C@H](Cc1c[nH]c2ccccc12)NC(=O)[C@@H]1CCCN1C(C)=O)C(=O)N[C@H](C(=O)N[C@@H](Cc1c[nH]c2ccccc12)C(=O)NCC(=O)N1CCC[C@H]1C(=O)N[C@H](C(=O)N[C@H](C(=O)N[C@@H](CO)C(=O)N[C@@H](CCCNC(=N)N)C(=O)N[C@@H](CCC(=O)O)C(N)=O)C(C)C)[C@@H](C)O)C(C)C (Ac-PWAIVWGPTVSRE-NH2)
Solution: 650
